tested on: KASUMI-1; assay: Viability assay (96 hours), Alamar Blue; format: cell-based; conditions: Homo sapiens; KASUMI-1, 96 hours, single agent; read-out: EC50 (viability)
measure.name: EC50 (nM)

[[record]]
smiles_repr = "Nc1ncn([C@@H]2O[C@H](CO)[C@@H](O)[C@H]2O)c(=O)n1"
readout_units = "nM"
endpoint_value = 2280

[[record]]
smiles_repr = "Nc1ccn([C@@H]2O[C@H](CO)[C@@H](O)[C@@H]2O)c(=O)n1"
readout_units = "nM"
endpoint_value = 28.7

[[record]]
smiles_repr = "CN(C)CC[C@H](CSc1ccccc1)Nc1ccc(S(=O)(=O)NC(=O)c2ccc(N3CCN(Cc4ccccc4-c4ccc(Cl)cc4)CC3)cc2)cc1[N+](=O)[O-]"
readout_units = "nM"
endpoint_value = 124

[[record]]
smiles_repr = "Nc1ccccc1NC(=O)c1ccc(CNC(=O)OCc2cccnc2)cc1"
readout_units = "nM"
endpoint_value = 168


* * *

system: MOLM-13; experiment: Viability assay (96 hours), Alamar Blue; format: cell-based; details: Homo sapiens, MOLM-13, 96 h, read-out: EC50 (viability)
measure.name: EC50 (nM)

[[record]]
compound = "Nc1ncn([C@H]2C[C@H](O)[C@@H](CO)O2)c(=O)n1 [Decitabine, 5-aza-2′-deoxycytidine]"
assayed_system = "MOLM-13"
readout_units = "nM"
endpoint_value = 12.6


* * *

tested on: MV(4;11); test: Viability assay (96 hours), Alamar Blue; type: cell-based; conditions: MV(4;11), 96 hours, serial 1:3 dilution
measure.name: Reduction of viability (compared to vehicle controls)

[[record]]
compound = "Nc1ncn([C@@H]2O[C@H](CO)[C@@H](O)[C@H]2O)c(=O)n1 [Azacitidine]"
endpoint_value = "greater than 20%"

[[record]]
compound = "CC(C)N(C[C@H]1O[C@@H](n2cnc3c(N)ncnc32)[C@H](O)[C@@H]1O)[C@H]1C[C@@H](CCc2nc3cc(C(C)(C)C)ccc3[nH]2)C1 [EPZ5676, Pinometostat]"
endpoint_value = "greater than 20%"

[[record]]
compound = "CC(C)N(CCCNC(=O)Nc1ccc(C(C)(C)C)cc1)C[C@H]1O[C@@H](n2ccc3c(N)ncnc32)[C@H](O)[C@@H]1O [EPZ004777]"
endpoint_value = "greater than 20%"

[[record]]
compound = "Nc1ccccc1NC(=O)c1ccc(CNC(=O)OCc2cccnc2)cc1 [Entinostat]"
endpoint_value = "greater than 20%"

[[record]]
compound = "O=C(CCCCCCC(=O)Nc1ccccc1)NO [SAHA, suberanilohydroxamic acid]"
endpoint_value = "greater than 20%"


* * *

system: MOLM-13; test: Viability assay (96 hours), Alamar Blue; type: cell-based; conditions: Homo sapiens; MOLM-13, 96 hours, single agent; read-out: EC50 (viability)
measure.name: log10 EC50 (log10 of the value in nM)

[[record]]
compound = "CC(C)N(C[C@H]1O[C@@H](n2cnc3c(N)ncnc32)[C@H](O)[C@@H]1O)[C@H]1C[C@@H](CCc2nc3cc(C(C)(C)C)ccc3[nH]2)C1"
measure_name = "log10 EC50"
endpoint_value = 1.65

[[record]]
compound = "Nc1ccccc1NC(=O)c1ccc(CNC(=O)OCc2cccnc2)cc1"
measure_name = "log10 EC50"
endpoint_value = 1.72

[[record]]
compound = "Nc1ccn([C@@H]2O[C@H](CO)[C@@H](O)[C@@H]2O)c(=O)n1"
measure_name = "log10 EC50"
endpoint_value = 1.89

[[record]]
compound = "CN(C)CC[C@H](CSc1ccccc1)Nc1ccc(S(=O)(=O)NC(=O)c2ccc(N3CCN(Cc4ccccc4-c4ccc(Cl)cc4)CC3)cc2)cc1[N+](=O)[O-]"
measure_name = "log10 EC50"
endpoint_value = 1.40

[[record]]
compound = "COc1ccc(C2=N[C@@H](c3ccc(Cl)cc3)[C@@H](c3ccc(Cl)cc3)N2C(=O)N2CCNC(=O)C2)c(OC(C)C)c1"
measure_name = "log10 EC50"
endpoint_value = 2.11

[[record]]
compound = "CC1=C(/C=C/C(C)=C/C=C/C(C)=C/C(=O)O)C(C)(C)CCC1 [ATRA, all-trans retinoic acid]"
measure_name = "log10 EC50"
endpoint_value = 0.68

[[record]]
compound = "CC(C)N(CCCNC(=O)Nc1ccc(C(C)(C)C)cc1)C[C@H]1O[C@@H](n2ccc3c(N)ncnc32)[C@H](O)[C@@H]1O"
measure_name = "log10 EC50"
endpoint_value = 2.03

[[record]]
compound = "Nc1ncn([C@@H]2O[C@H](CO)[C@@H](O)[C@H]2O)c(=O)n1"
measure_name = "log10 EC50"
endpoint_value = 2.51


* * *

system: THP-1; test: Viability assay (96 hours), Alamar Blue; format: cell-based; settings: Homo sapiens, THP-1, 96 h, read-out: EC50 (viability)
measure.name: EC50 (nM)

[[record]]
smiles_repr = "Nc1ncn([C@H]2C[C@H](O)[C@@H](CO)O2)c(=O)n1"
assayed_system = "THP-1"
measure_name = "EC50"
readout_units = "nM"
endpoint_value = 95


* * *

Listed here: items and their measured pEC50.
test system: HL-60; test: Viability assay (96 hours), Alamar Blue; type: cell-based; conditions: Homo sapiens; HL-60, 96 hours, single agent; read-out: EC50 (viability)
pEC50: −log10 of the molar value.
measure.name: pEC50

[[record]]
compound = "Nc1ccccc1NC(=O)c1ccc(CNC(=O)OCc2cccnc2)cc1"
endpoint_value = 7.38

[[record]]
compound = "Nc1ncn([C@@H]2O[C@H](CO)[C@@H](O)[C@H]2O)c(=O)n1"
endpoint_value = 5.74

[[record]]
compound = "Nc1ccn([C@@H]2O[C@H](CO)[C@@H](O)[C@@H]2O)c(=O)n1"
endpoint_value = 7.36

[[record]]
compound = "CC1=C(/C=C/C(C)=C/C=C/C(C)=C/C(=O)O)C(C)(C)CCC1 [ATRA, all-trans retinoic acid]"
endpoint_value = 8.57

[[record]]
compound = "CN(C)CC[C@H](CSc1ccccc1)Nc1ccc(S(=O)(=O)NC(=O)c2ccc(N3CCN(Cc4ccccc4-c4ccc(Cl)cc4)CC3)cc2)cc1[N+](=O)[O-]"
endpoint_value = 6.95


src = patent US11013698B2
